Origin of measurements: ChEMBL document CHEMBL3616440

Molecular target: Melanin-concentrating hormone receptor 1 (Homo sapiens)
Sequence (Q99705 whole entry): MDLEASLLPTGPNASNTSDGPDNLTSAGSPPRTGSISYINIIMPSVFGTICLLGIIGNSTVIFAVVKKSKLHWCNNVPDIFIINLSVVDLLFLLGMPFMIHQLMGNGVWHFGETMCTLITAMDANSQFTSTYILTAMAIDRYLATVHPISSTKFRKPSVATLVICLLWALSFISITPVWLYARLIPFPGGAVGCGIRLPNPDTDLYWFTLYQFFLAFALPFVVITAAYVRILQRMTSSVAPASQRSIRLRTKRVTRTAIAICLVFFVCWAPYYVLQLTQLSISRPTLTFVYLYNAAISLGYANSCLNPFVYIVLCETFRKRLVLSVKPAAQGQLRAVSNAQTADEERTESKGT
pKi: −log10 of the molar value.
Label rule, in plain words: pKi of 8 and up is 1, under 8 is 0.

INPUT: Check the entry `COc1cc(-n2cnn3cc(-c4ccc(Cl)cc4)cc3c2=O)ccc1N1C[C@@H](O)[C@@H](O)C1` : does pKi equal or exceed 8?
OUTPUT: 1

INPUT: Check the entry `COc1ccc(-n2cnn3nc(-c4ccc(Cl)cc4)cc3c2=O)cc1OC` : does pKi equal or exceed 8?
OUTPUT: 0

INPUT: Check the entry O=c1c2cc(-c3ccc(Cl)cc3)cn2ncn1-c1ccc(N2CCC(N3CC(O)C3)C2)nc1 (centres undefined) : does pKi equal or exceed 8?
OUTPUT: 1

INPUT: Check the entry CNC1CCN(c2ccc(-n3cnn4cc(-c5ccc(Cl)cc5)cc4c3=O)cn2)C1 (centres undefined) : does pKi equal or exceed 8?
OUTPUT: 1

INPUT: Check the entry `COc1cc(-n2cnn3cc(-c4ccc(Cl)cc4)cc3c2=O)ccc1OCCN1CCCC1` : does pKi equal or exceed 8?
OUTPUT: 1

INPUT: Check the entry `COc1cc(-n2cnn3cc(-c4ccc(Cl)cc4)cc3c2=O)ccc1OCC(C)(C)O` : does pKi equal or exceed 8?
OUTPUT: 1

INPUT: Check the entry `CCS(=O)(=O)C[C@@H](O)COc1ccc(-n2cnn3cc(-c4ccc(Cl)cc4)cc3c2=O)cc1OC` : does pKi equal or exceed 8?
OUTPUT: 1

INPUT: Check the entry COc1cc(-n2cnn3cc(-c4ccc(Cl)cc4)cc3c2=O)ccc1OCC(O)C1CC1 (centres undefined) : does pKi equal or exceed 8?
OUTPUT: 1

INPUT: Check the entry `O=c1c2cc(-c3ccc(Cl)cc3)cn2ncn1-c1ccc(N2CC[C@@H](O)C2)nc1` : does pKi equal or exceed 8?
OUTPUT: 1

INPUT: Check the entry `COc1ccc(-n2cnn3cc(-c4ccc(Cl)cc4)nc3c2=O)cc1OC` : does pKi equal or exceed 8?
OUTPUT: 0

---

Tested on: Brain
Experiment: Drug concentration in Sprague-Dawley rat brain assessed as 6-(4-chlorophenyl)-3-(4-((3S,4R)-3,4-dihydroxypyrrolidin-1-yl)-3-methoxyphenyl)pyrrolo[1,2-f][1,2,4]triazin-4(3H)-one level at 10 mg/kg, po qd at 8 hrs
Type: ADME, organism-based
Details: in vivo, read-out: Drug uptake
test_readout: concentration (nM)
Reply numerically in nM, unit not repeated.

INPUT: What does the record list as concentration for `COc1cc(-n2cnn3cc(-c4ccc(Cl)cc4)cc3c2=O)ccc1N1C[C@H](OC(=O)[C@@H](N)C(C)C)[C@H](OC(=O)[C@@H](N)C(C)C)C1` ?
OUTPUT: 210

---

Biological target: hERG (KCNH2) (Homo sapiens, UniProt Q12809)
Sequence (Q12809 whole entry): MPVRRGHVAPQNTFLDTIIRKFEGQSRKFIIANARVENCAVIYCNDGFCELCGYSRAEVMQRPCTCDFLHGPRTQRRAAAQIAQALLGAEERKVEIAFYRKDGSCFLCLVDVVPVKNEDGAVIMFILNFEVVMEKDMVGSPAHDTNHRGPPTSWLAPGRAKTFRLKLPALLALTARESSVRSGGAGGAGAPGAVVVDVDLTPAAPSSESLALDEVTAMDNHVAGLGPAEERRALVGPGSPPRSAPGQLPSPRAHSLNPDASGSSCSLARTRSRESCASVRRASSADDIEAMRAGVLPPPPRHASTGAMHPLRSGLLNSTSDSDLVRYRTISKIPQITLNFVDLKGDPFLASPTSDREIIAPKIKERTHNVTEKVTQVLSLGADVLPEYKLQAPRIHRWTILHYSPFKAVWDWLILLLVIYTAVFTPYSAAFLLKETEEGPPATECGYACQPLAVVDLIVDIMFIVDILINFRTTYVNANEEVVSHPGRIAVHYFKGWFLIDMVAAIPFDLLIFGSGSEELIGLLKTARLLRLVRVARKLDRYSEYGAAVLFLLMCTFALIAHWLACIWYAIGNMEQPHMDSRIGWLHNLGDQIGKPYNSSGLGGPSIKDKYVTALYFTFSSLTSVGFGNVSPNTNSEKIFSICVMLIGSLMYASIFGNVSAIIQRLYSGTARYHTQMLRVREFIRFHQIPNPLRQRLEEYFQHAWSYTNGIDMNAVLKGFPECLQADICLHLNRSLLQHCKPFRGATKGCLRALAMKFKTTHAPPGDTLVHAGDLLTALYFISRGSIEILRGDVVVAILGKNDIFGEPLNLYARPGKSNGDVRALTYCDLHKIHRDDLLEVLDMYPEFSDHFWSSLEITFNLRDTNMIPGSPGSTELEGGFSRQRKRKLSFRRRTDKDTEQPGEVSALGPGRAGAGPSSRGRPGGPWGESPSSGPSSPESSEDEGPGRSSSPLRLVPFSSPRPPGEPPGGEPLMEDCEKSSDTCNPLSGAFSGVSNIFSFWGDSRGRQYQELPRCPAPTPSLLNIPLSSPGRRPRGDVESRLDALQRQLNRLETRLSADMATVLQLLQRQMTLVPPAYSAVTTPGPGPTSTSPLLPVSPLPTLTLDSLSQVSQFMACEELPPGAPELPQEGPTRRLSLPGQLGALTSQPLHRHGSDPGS
Assay: Inhibition of human ERG at 1 uM by flux assay
test_readout: inhibition at 1 µM (%)
Reply numerically in %, unit not repeated.

INPUT: What does the record list as inhibition at 1 µM for `O=c1c2cc(-c3ccc(Cl)cc3)cn2ncn1-c1ccc(N2CC[C@@H](O)C2)nc1` ?
OUTPUT: 26

---

Test system: Plasma
Experiment: Plasma concentration in Sprague-Dawley rat assessed as 6-(5-chloropyridin-2-yl)-3-(4-(2-cyclopropyl-2-hydroxyethoxy)-3-methoxyphenyl)pyrrolo[1,2-f][1,2,4]triazin-4(3H)-one level at 10 mg/kg, po qd at 8 hrs
Assay type: ADME, organism-based
Conditions: in vivo
test_readout: concentration
Give the number first and the unit second.

INPUT: What does the record list as concentration for COc1cc(-n2cnn3cc(-c4ccc(Cl)cn4)cc3c2=O)ccc1OCC(OC(=O)[C@@H](N)C(C)C)C1CC1 (stereo partly specified) ?
OUTPUT: 10.2 µM
